From: patent US20220041744A1

Target: T1, human CD73 expressed at the surface of cells (human, UniProt P21589 27-549)
T1 construct: T cells in the proliferation assays; also called huCD73; CD73-expressing cells
T1 sequence: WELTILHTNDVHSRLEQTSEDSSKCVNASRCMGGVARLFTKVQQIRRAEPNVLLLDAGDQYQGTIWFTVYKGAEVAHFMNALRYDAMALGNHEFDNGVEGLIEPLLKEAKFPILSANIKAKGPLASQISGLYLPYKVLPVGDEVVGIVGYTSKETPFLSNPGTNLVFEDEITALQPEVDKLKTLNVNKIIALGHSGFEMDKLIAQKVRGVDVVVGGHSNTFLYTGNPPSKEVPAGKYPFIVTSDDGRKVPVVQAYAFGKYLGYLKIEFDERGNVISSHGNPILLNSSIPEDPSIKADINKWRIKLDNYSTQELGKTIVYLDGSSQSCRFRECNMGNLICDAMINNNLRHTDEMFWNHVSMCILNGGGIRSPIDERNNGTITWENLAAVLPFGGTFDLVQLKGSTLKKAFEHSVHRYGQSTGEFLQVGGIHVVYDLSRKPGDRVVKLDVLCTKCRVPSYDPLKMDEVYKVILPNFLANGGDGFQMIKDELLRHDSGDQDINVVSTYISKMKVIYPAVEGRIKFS
Test: flow cytometry titration on transfected cells expressing human CD73, PE goat anti-human IgG (H+L) detection, MFI
QUANTITY MEASURED: EC50 (read off the curve)

Illustrative cases are given below, each with its answer.
>  <BINDER>
H3L0 (antibody, human IgG1, V domains shown, L0 VL limits counted by alignment with L1) VH: QIQLVQSGAEVKKPGASVKVSCKASGYAFTSYNMYWVRQAPGQSLEWIGYIDPYNGGSSYNLTFKGKATITVDKSASTAYMELSSLRSEDTAVYYCARGYGNYKAWFAYWGQGTLVTVSS VL: DIQMTQSPSSLSASVGDRVTITCKASQSVSNDVAWYQQKPGKAPKLLIYYASTRYTGVPSRFSGSGSGTDFTFTISSLQPEDIATYYCQQDYSSLTFGQGTKLEIK

>  <EC50 (read off the curve)>
~0.2 µg/mL

$$$$
>  <BINDER>
H2L1 (antibody, human IgG1, V domains shown) VH: QIQLVQSGAEVKKPGASVKVSCKASGYAFTSYNMYWVRQAPGQSLEWMGYIDPYNGGSSYNLTFKGRVTITVDKSASTAYMELSSLRSEDTAVYYCARGYGNYKAWFAYWGQGTLVTVSS VL: DIQMTQSPSSLSASVGDRVTITCKASQSVSNDVAWYQQKPGKAPKLLIYYASTRYTGVPSRFSGSGYGTDFTFTISSLQPEDIATYYCQQDYSSLTFGQGTKLEIK

>  <EC50 (read off the curve)>
~0.1 µg/mL

$$$$
>  <BINDER>
H2L0 (antibody, human IgG1, V domains shown, L0 VL limits counted by alignment with L1) VH: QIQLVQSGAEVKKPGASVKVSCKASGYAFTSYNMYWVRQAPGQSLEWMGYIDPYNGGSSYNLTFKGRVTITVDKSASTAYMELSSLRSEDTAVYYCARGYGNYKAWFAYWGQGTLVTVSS VL: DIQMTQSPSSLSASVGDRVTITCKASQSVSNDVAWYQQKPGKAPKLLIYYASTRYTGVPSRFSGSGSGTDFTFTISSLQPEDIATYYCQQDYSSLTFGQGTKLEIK

>  <EC50 (read off the curve)>
~0.2 µg/mL

$$$$
>  <BINDER>
H1L0 (antibody, human IgG1, V domains shown, L0 VL limits counted by alignment with L1) VH: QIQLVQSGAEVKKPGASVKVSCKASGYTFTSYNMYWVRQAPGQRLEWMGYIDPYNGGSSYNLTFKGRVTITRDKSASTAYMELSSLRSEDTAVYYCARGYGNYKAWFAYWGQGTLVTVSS VL: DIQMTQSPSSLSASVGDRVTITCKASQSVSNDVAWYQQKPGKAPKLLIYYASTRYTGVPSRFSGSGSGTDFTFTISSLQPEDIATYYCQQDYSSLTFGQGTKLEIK

>  <EC50 (read off the curve)>
~0.2 µg/mL

$$$$

Please turn your attention to the following entry.
Given H3L1 (antibody, human IgG1, V domains shown) VH: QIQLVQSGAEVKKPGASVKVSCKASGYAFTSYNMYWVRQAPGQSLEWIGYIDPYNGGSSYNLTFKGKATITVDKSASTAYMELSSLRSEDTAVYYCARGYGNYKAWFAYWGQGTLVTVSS VL: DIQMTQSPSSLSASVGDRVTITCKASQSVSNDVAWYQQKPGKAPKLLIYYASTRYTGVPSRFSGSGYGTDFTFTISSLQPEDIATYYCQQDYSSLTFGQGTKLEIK , respond with its EC50 (read off the curve).
~0.3 µg/mL
